# target under test: T1, 14-3-3σ (UniProt P31947 1-248)
# T1 construct: 14-3-3σ (sigma isoform of 14-3-3, SFN), the protein titrated in the fluorescence anisotropy assays; With the covalent compounds of the FA assays C38 becomes modified in the sample; also called sigma isoform
# T1 sequence (looked up): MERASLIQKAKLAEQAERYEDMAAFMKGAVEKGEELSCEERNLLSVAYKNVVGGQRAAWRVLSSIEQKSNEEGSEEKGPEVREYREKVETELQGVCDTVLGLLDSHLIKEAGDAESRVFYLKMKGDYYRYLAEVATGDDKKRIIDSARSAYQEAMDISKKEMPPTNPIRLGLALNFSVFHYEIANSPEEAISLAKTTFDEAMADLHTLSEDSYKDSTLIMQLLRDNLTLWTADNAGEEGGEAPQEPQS
# assay remarks: fluorescence polarisation; fluorescence anisotropy protein titration: 14-3-3σ titrated into 10 nM labeled peptide in the presence of DMSO; apparent
# particulars: both partners purified
Non-standard residues stand in square brackets, D forms with d. No end group written: not given here. pS = N[C@@H](COP(=O)(O)O)C(=O)O
parameter measured: Kd (µM)
Lab book: enter the figure in µM, no units written.

Query: Kd; subject: QRST[pS]TPNVH (also: FAM label, site not given here) [FAM-labeled C-RAF259 peptide (10-mer)] 8.43
